Hey, just so you know, these numbers are from patent US4487927A.

Recorded below: MIC, system Staphylococcus aureus 209P JC-1.
RECORDED ENDPOINT: MIC (µg/mL)

Example cases with answers are listed next.
# COMPOUND, VALUE UNITS, MIC
measured = [
    ("C=CC1=C(C(=O)O)N2C(=O)C(NC(=O)/C(=N\\OCCCCCC)c3csc(N)n3)C2SC1 (stereo not drawn)", "µg/mL", 1.56),
    ("C=CC1=C(C(=O)O)N2C(=O)C(NC(=O)/C(=N\\OCC)c3csc(N)n3)C2SC1 (stereo not drawn)", "µg/mL", 1.56),
]

I: Br.C=CC1=C(C(=O)O)N2C(=O)C(NC(=O)Cc3csc(NC(=N)N)n3)[C@H]2SC1 (stereo partly drawn)
II: C=CC1=C(C(=O)O)N2C(=O)C(NC(=O)Cc3cnc(N)s3)[C@H]2SC1 (stereo partly drawn)
Which value of MIC is smaller, the one for I or the one for II ? Kindly state the label of the option you pick. I
(I: 0.39 µg/mL, II: 0.78 µg/mL)

1: C=CC1=C(C(=O)O)N2C(=O)C(NC(=O)C(O)c3csc(N)n3)[C@H]2SC1 (stereo partly drawn)
2: C=CC1=C(C(=O)O)N2C(=O)C(NC(=O)Cc3cnc(NC=O)s3)[C@H]2SC1 (stereo partly drawn)
Which value of MIC is smaller, the one for 1 or the one for 2 ? Kindly state the label of the option you pick. 2
(2: 0.39 µg/mL, 1: 1.56 µg/mL)
